From: PubChem BioAssay AID1963986

# Tested on: 171881-019-R-J1-PDC tumor spheroid viability;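 note: spheroids exposed to compound for 7 days before viability read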
# Procedure Details: Anticancer human tumor 171881-019-R-J1-PDC patient-derived invasive breast carcinoma cell line growth inhibition [PI3K]
# Run Parameters: curve of first compound; second compound 10 µM; spheroids with HUVEC and MSC
pIC50: −log10 of the molar value.
Reported pIC50 is given for each of the following compounds.

{"columns": ["Compound", "Measurement Target", "pIC50"],
 "data": [
  ["CNC(=O)c1ccc(N2C(=S)N(c3ccc(C#N)c(C(F)(F)F)c3)C(=O)C2(C)C)cc1F + Cc1nc(NC(=O)N2CCCC2C(N)=O)sc1-c1ccnc(C(C)(C)C(F)(F)F)c1", "171881-019-R-J1-PDC tumor spheroid viability", "> 7.50"],
  ["C[C@@H](NC(=O)c1ncnc(N)c1Cl)c1ncc(C(=O)Nc2cc(C(F)(F)F)c(Cl)cn2)s1 + CC(Nc1ncnc2nc[nH]c12)c1cc2cccc(Cl)c2c(=O)n1-c1ccccc1", "171881-019-R-J1-PDC tumor spheroid viability", 6.18],
  ["CC(Cn1ccc(-c2ccc(C#N)c(Cl)c2)n1)NC(=O)c1cc(C(C)O)[nH]n1 (configuration not stated) + CC(Nc1ncnc2nc[nH]c12)c1cc2cccc(Cl)c2c(=O)n1-c1ccccc1", "171881-019-R-J1-PDC tumor spheroid viability", 5.29],
  ["Cn1ncc(Cl)c1-c1cc(C(=O)NC(CN)Cc2cccc(F)c2)sc1Cl (configuration not stated) + Cc1nc(NC(=O)N2CCCC2C(N)=O)sc1-c1ccnc(C(C)(C)C(F)(F)F)c1", "171881-019-R-J1-PDC tumor spheroid viability", "> 7.50"],
  ["CCN1CCN(Cc2ccc(Nc3ncc(F)c(-c4cc(F)c5nc(C)n(C(C)C)c5c4)n3)nc2)CC1 + Cc1nc(NC(=O)N2CCCC2C(N)=O)sc1-c1ccnc(C(C)(C)C(F)(F)F)c1", "171881-019-R-J1-PDC tumor spheroid viability", "> 8.50"],
  ["Cn1ncnc1[C@H]1c2n[nH]c(=O)c3cc(F)cc(c23)N[C@@H]1c1ccc(F)cc1 + CC(Nc1ncnc2nc[nH]c12)c1cc2cccc(Cl)c2c(=O)n1-c1ccccc1", "171881-019-R-J1-PDC tumor spheroid viability", "< 7.00"],
  ["Cn1cnc2c(F)c(Nc3ccc(Br)cc3Cl)c(C(=O)NOCCO)cc21 + CC(Nc1ncnc2nc[nH]c12)c1cc2cccc(Cl)c2c(=O)n1-c1ccccc1", "171881-019-R-J1-PDC tumor spheroid viability", "> 8.02"],
  ["CCCS(=O)(=O)Nc1ccc(F)c(C(=O)c2c[nH]c3ncc(-c4ccc(Cl)cc4)cc23)c1F + Cc1nc(NC(=O)N2CCCC2C(N)=O)sc1-c1ccnc(C(C)(C)C(F)(F)F)c1", "171881-019-R-J1-PDC tumor spheroid viability", "> 7.50"],
  ["Cn1ncnc1[C@H]1c2n[nH]c(=O)c3cc(F)cc(c23)N[C@@H]1c1ccc(F)cc1 + Cc1nc(NC(=O)N2CCCC2C(N)=O)sc1-c1ccnc(C(C)(C)C(F)(F)F)c1", "171881-019-R-J1-PDC tumor spheroid viability", "> 9.50"],
  ["CC(Cn1ccc(-c2ccc(C#N)c(Cl)c2)n1)NC(=O)c1cc(C(C)O)[nH]n1 (configuration not stated) + Cc1nc(NC(=O)N2CCCC2C(N)=O)sc1-c1ccnc(C(C)(C)C(F)(F)F)c1", "171881-019-R-J1-PDC tumor spheroid viability", "> 7.50"],
  ["CC(C)n1nc(-c2ccc3oc(N)nc3c2)c2c(N)ncnc21 + CC(Nc1ncnc2nc[nH]c12)c1cc2cccc(Cl)c2c(=O)n1-c1ccccc1", "171881-019-R-J1-PDC tumor spheroid viability", 8.92],
  ["CC(C)n1nc(-c2ccc3oc(N)nc3c2)c2c(N)ncnc21 + Cc1nc(NC(=O)N2CCCC2C(N)=O)sc1-c1ccnc(C(C)(C)C(F)(F)F)c1", "171881-019-R-J1-PDC tumor spheroid viability", "> 9.50"]
]}
